# targetDesc: hCTLA-4 extracellular domain (aa 1-161) fused to the trans-membrane and cytoplasmic domain of hCD300a (aa … (human, UniProt Q9UGN4 181-299))
# Sequence (Q9UGN4 other isoform, or with tags, fused parts or gaps limits assumed, form in doubt): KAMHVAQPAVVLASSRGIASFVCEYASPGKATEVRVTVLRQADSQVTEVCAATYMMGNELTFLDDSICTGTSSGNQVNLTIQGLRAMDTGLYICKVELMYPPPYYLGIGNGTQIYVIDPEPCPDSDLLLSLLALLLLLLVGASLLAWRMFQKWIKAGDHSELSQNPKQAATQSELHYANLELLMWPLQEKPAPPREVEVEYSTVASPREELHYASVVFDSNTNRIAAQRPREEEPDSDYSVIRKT
# protocolDescription: cell-based or functional assay
Quick list: EC50, T-cell/APC NFAT-luciferase assay, -Fc Block per entry.
Provide only the numeric value, understood in nM.

Example results:
>  <binder>
H1H19273P (antibody, human IgG1, V domains shown) VH: QITLKESGPTLVKPTQTLTLTCTFSGFSLSTSGVGVGWIRQSPGRALEWLALIYWNDHERYSPSLKSRLTITKDTSKNLVVLAMANMDPVDTATYFCAHRNIEYRRSYFFDYWGQGTLVTVSS VL: DIQMTQSPSSVSASVRDRVTVTCRASQDINNWLAWYQQKPGKAPKLLIYAASSLQSGVPSRFSGSGSGTDFTLTISSLQPEDFATYYCQQANTFPFTFGPGTKVDIK

>  <unitAbbreviation>
nM

>  <number>
2.74

$$$$
>  <binder>
H1H19291P (antibody, human IgG1, V domains shown) VH: QVQLVESGGGVVQPGRSLRLSCAASGFTFSTYGMHWVRQAPGKGLEWVTVIWYDGNNKYYADSVKGRFTISRDNSKNTLYLQMNNLRAEDTALYYCARGGGRLSYYHDYWGQGTLVTVSS VL: DIQMTQSPSSLSASVGDRVTITCRASQSISTFLNWYQQKPGKAPNLLIYGTSSLQSGVPSRFSGSGSGTDFTLTISSLQPEDFAAYYCQQTYSTPFTFGPGTKVDIK

>  <unitAbbreviation>
nM

>  <number>
2.36

$$$$
>  <binder>
H1H19313P (antibody, human IgG1, V domains shown) VH: QITLKESGPTLVKPTQTLTLTCTFSGFSLSTSGVGVGWIRQPPGVALEWLALIYWNDDKRFSPSLKSRLTITKDTSKNQVVLTMTNMDPVDTATYYCAHRRLGLYYFDYWGQGTLVTVSS VL: DIQLTQSPSFLSASVGDRVTITCWASQGISSYLAWYQQKPGKAPKLLIYAASTLQSGVPSRFSGSGSGTEFTLTISSLQPEDFATYYCQQVHIYPFTFGPGTKVDIK

>  <unitAbbreviation>
nM

>  <number>
1.69

$$$$

Note: attention shifts to another entry.
# input Name the recorded EC50, T-cell/APC NFAT-luciferase assay, -Fc Block of the item H1H19303P (antibody, human IgG1, kappa, V domains shown, also called REGN4659) VH: EVQLVESGGGLVQPGGSLRLSCAASGFTFSNYEMSWVRQAPGKGLEWVSSIRTSGTTKYYADSMKGRFTISRDNAKNSLYLQMNSLRAEDTAVYYCAGGGTFLHYWGQGTLVTVSS VL: DIQMTQSPSSVSASVGDRVTITCRASQGIASYLAWYQQKPGKAPKLLIYAASSLQTGVPSRFSGSGYGTDFTLTISSLQPEDFATYYCQQAKSFPMYTFGQGTKLEIKR in your answer.
# output 1.61
